Biological target: E. coli ParC^S80L topoisomerase IV (Escherichia coli, UniProt P0AFI2, S80L)
Details: read-out: IC50, inhibition of DNA decatenation
Measure Name: IC50

Notebook: CC[C@H](C)n1cc(C)c2c(C(=O)NCc3c(C)cc(C)[nH]c3=O)cc(-c3ccc(N4CCNCC4)nc3)cc21 [GSK126] , IC50 read as ~1400 nM

* * *

Biological target: E. coli wild-type topoisomerase IV (Escherichia coli, UniProt P0AFI2)
Sequence (P0AFI2 whole entry): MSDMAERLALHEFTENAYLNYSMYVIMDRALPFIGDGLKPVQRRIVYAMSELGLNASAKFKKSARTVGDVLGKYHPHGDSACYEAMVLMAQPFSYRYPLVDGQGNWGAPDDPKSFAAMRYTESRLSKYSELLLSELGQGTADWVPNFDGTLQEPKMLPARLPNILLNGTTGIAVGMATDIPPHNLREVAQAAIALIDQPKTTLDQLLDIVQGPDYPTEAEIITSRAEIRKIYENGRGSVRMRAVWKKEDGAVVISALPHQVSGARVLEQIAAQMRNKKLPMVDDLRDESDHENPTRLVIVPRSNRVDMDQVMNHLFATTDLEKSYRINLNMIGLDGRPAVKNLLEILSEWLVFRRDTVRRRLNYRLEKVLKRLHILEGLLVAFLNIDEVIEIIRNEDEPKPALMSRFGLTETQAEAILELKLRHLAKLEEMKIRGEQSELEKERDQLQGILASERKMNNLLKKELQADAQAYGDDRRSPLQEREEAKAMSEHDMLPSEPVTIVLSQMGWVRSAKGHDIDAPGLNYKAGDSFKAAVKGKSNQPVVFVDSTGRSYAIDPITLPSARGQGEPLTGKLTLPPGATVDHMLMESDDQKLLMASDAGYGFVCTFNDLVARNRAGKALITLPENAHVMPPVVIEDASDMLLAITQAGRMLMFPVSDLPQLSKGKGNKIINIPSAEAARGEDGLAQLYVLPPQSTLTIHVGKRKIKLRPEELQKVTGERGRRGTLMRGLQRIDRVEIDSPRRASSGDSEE
Sequence (P20083 whole entry, further chain): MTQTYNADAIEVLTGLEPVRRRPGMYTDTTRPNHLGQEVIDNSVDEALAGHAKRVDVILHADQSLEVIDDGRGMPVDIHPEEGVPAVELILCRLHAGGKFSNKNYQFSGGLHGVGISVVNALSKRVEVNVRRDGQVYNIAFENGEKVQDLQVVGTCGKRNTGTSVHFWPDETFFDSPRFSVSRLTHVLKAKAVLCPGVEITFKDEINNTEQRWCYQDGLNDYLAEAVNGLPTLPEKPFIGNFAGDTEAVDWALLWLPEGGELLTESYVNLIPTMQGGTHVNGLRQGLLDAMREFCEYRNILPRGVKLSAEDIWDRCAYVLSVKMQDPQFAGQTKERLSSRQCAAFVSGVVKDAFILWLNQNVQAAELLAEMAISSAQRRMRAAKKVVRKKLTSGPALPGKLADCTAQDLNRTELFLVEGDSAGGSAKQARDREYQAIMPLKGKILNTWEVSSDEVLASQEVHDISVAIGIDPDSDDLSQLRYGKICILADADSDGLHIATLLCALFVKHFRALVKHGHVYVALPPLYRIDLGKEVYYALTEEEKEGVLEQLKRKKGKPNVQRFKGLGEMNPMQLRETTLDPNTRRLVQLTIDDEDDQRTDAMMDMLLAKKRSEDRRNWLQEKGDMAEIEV
Measure Name: IC50

Notebook: `CC[C@H](C)n1cc(C)c2c(C(=O)NCc3c(C)cc(C)[nH]c3=O)cc(-c3ccc(N4CCNCC4)nc3)cc21` , IC50 read as ~1400 nM

* * *

Target: UniProt:A0A6H3A7B1
Measure Name: IC50

Entry `CC[C@H](C)n1cc(C)c2c(C(=O)NCc3c(C)cc(C)[nH]c3=O)cc(-c3ccc(N4CCNCC4)nc3)cc21` , tested on UniProt:A0A6H3A7B1, has a reported IC50 of ~400 nM

* * *

Biological target: E. coli wild-type gyrase (Escherichia coli, UniProt P0AES4)
Sequence (P0AES4 whole entry): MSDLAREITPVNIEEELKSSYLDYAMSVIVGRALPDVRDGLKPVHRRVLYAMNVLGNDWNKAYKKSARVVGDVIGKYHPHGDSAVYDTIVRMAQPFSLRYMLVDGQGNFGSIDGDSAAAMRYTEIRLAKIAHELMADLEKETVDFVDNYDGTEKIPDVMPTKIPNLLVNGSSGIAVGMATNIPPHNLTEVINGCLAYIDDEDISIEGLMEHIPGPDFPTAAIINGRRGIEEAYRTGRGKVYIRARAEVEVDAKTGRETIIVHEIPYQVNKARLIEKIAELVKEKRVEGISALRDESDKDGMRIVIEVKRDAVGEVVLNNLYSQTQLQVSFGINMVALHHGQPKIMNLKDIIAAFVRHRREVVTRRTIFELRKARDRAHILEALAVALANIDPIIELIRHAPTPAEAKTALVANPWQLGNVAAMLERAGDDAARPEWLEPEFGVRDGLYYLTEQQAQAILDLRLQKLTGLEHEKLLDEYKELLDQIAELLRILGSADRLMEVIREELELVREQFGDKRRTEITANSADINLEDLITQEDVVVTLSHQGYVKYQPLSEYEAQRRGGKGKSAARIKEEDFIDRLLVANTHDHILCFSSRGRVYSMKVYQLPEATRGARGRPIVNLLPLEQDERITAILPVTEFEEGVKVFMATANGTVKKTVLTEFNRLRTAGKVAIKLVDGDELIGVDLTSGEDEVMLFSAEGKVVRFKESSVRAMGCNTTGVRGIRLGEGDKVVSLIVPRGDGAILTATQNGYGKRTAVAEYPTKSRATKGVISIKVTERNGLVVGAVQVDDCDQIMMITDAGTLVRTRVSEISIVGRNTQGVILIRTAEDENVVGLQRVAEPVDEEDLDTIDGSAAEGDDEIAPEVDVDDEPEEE
Measure Name: IC50

Entry `CC[C@H](C)n1cc(C)c2c(C(=O)NCc3c(C)cc(C)[nH]c3=O)cc(-c3ccc(N4CCNCC4)nc3)cc21` , tested on E. coli wild-type gyrase (Escherichia coli, UniProt P0AES4), has a reported IC50 of ~2000 nM
